# experimentalTarget: T1, recombinant human CTLA4-Fc (human, UniProt P16410 36-162)
# T1 construct: also called human CTLA4 fused with human FC fragment; CTLA4-Fc (Sino Biological, 11159-H03H)
# T1 sequence (looked up): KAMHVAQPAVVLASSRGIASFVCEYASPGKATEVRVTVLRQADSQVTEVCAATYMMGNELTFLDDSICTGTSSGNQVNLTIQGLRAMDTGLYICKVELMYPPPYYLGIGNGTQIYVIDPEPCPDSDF
# measurementProtocol: ELISA; EC50 divided by the EC50 of TY21580
Kindly state masking efficiency for each of the entries shown.
One number for each entry.

TY22776 (antibody, V domains shown) VH: EVQLVESGGGLVQPGGSLRLSCAASGYSISSGYHWSWIRQAPGKGLEWLARIDWDDDKYYSTSLKSRLTISRDNSKNTLYLQLNSLRAEDTAVYYCARSYVYFDYWGQGTLVTVSS VL: EVGSSDCVPYYYACAYSGRSAGGGGTPLGLAGSGGSDIQLTQSPSSLSASVGDRVTITCRASQSVRGRFLAWYQQKPGKAPKLLIYDASNRATGIPSRFSGSGSGTDFTLTISSLQPEDFATYYCQQSSSWPPTFGQGTKVEIKR
296
TY22402 (antibody, IgG1, V domains shown, IgG1; peptide fused to the N-terminus of the light chain of TY21580) VH: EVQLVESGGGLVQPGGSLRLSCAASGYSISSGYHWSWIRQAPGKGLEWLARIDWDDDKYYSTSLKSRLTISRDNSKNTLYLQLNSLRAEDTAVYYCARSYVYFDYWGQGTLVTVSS VL: EVGSYIVHHSDCDAFYPYCDSSGRSAGGGGSPLGLAGSGGSDIQLTQSPSSLSASVGDRVTITCRASQSVRGRFLAWYQQKPGKAPKLLIYDASNRATGIPSRFSGSGSGTDFTLTISSLQPEDFATYYCQQSSSWPPTFGQGTKVEIKR
243
TY22775 (antibody, V domains shown) VH: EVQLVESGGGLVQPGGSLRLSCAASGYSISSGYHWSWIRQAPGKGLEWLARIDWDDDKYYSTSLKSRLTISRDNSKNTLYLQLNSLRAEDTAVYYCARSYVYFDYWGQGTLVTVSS VL: EVGHSDCDAFYPYCDSSGRSAGGGGTPLGLAGSGGSDIQLTQSPSSLSASVGDRVTITCRASQSVRGRFLAWYQQKPGKAPKLLIYDASNRATGIPSRFSGSGSGTDFTLTISSLQPEDFATYYCQQSSSWPPTFGQGTKVEIKR
168

Next, consider the following binder.
Prompt: Tell me the measured masking efficiency of TY22404 (antibody, IgG1, V domains shown, IgG1; peptide fused to the N-terminus of the light chain of TY21580) VH: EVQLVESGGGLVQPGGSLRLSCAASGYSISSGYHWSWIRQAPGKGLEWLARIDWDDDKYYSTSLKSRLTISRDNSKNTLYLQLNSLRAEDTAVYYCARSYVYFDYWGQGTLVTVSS VL: EVGSYPNPSSDCVPYYYACAYSGRSAGGGGSPLGLAGSGGSDIQLTQSPSSLSASVGDRVTITCRASQSVRGRFLAWYQQKPGKAPKLLIYDASNRATGIPSRFSGSGSGTDFTLTISSLQPEDFATYYCQQSSSWPPTFGQGTKVEIKR , please.
Response: 308
